target.desc: UniProt:P29323
Sequence (P29323 19-1055): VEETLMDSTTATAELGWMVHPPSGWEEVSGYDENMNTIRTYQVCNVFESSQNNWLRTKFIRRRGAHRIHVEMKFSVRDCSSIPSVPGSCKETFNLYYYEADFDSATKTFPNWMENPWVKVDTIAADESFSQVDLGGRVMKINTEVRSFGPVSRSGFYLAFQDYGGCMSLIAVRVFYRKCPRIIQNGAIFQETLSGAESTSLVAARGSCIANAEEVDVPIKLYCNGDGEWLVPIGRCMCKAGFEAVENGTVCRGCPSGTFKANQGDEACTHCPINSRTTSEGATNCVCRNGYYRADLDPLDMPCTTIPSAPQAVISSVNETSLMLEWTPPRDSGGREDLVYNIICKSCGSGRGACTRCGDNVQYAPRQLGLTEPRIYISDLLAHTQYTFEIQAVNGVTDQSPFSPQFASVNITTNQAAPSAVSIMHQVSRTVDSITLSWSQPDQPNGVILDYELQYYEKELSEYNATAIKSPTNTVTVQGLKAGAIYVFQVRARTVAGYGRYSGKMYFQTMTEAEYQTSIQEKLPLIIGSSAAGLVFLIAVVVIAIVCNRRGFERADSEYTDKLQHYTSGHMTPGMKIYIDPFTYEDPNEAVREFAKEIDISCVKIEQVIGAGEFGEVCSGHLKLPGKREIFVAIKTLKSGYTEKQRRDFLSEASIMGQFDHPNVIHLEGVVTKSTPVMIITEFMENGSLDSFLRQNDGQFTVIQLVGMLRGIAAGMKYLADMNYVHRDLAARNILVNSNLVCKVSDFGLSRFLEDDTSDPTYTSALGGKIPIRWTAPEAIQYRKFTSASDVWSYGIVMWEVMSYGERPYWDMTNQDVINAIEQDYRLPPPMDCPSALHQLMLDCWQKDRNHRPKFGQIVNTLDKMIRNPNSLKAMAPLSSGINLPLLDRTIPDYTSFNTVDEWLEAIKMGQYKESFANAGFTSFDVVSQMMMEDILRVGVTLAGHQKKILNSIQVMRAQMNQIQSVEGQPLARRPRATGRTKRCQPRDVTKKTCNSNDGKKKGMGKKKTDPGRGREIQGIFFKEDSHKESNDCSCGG
measurement.notes: Kinase panel profiling at 1 µmol/L (MSA or IMAP), percentage inhibition
Assay type: biochemical
run.parameters: kinase EPHB2; 1 µmol/L single concentration; read-out: %-inhibition at 1 µmol/L, EPHB2
inhibition at 1 µM by entry:
Your answer should be a plain number; it is taken to be in %.

Examples from the recorded data:
smiles.representation: COc1cc2ncnc(Nc3ccc(F)c(Cl)c3)c2cc1NC(=O)/C=C/CN1CCCCC1
reported.measurement: 51
//
smiles.representation: CCc1nc(C(N)=O)c(Nc2ccc(N3CCC(N4CCN(C)CC4)CC3)c(OC)c2)nc1NC1CCOCC1
reported.measurement: 75

Reported inhibition at 1 µM for UniProt:P29323, given `FC(F)(F)c1ccc(CNc2ccc(Cc3c[nH]c4ncc(Cl)cc34)cn2)cn1` ?
8

Reported inhibition at 1 µM for UniProt:P29323, given `Cn1cc(-c2cc3c(N4CCN(c5ncc([C@@](C)(N)c6ccc(F)cc6)cn5)CC4)ncnn3c2)cn1` ?
31

Reported inhibition at 1 µM for UniProt:P29323, given `C=CC(=O)N1CCC([C@@H]2CCNc3c(C(N)=O)c(-c4ccc(Oc5ccccc5)cc4)nn32)CC1` ?
-1.07

Reported inhibition at 1 µM for UniProt:P29323, given `Cc1nc(NC(=O)N2CCC[C@H]2C(N)=O)sc1-c1ccnc(C(C)(C)C(F)(F)F)c1` ?
1.07

Reported inhibition at 1 µM for UniProt:P29323, given `Cc1cc(Nc2ncnc3ccc(NC4=NC(C)(C)CO4)cc23)ccc1Oc1ccn2ncnc2c1` ?
2.14

Reported inhibition at 1 µM for UniProt:P29323, given `Cn1cnc2c(F)c(Nc3ccc(Br)cc3F)c(C(=O)NOCCO)cc21` ?
3.33

====

inhibition at 1 µM by entry:
target.desc: panel of 255 wild-type kinases (Homo sapiens)
measurement.notes: Kinase panel profiling at 1 µmol/L (MSA or IMAP), percentage inhibition
Format: biochemical
run.parameters: kinase LCK; 1 µmol/L single concentration; read-out: %-inhibition at 1 µmol/L, LCK
A complete answer gives the number and then names the unit.

Quick one: inhibition at 1 µM of `COc1ccc(CN2C3CC2CN(c2ccc(-c4cc(OCC(C)(C)O)cn5ncc(C#N)c45)cn2)C3)cn1` ?
77%

Quick one: inhibition at 1 µM of `C[C@H](Nc1ncnc2nc[nH]c12)c1cc2cccc(Cl)c2c(=O)n1-c1ccccc1` ?
7%

Quick one: inhibition at 1 µM of `Cn1cnc2c(F)c(Nc3ccc(Br)cc3F)c(C(=O)NOCCO)cc21` ?
-0.655%

Quick one: inhibition at 1 µM of `Cn1cnc2c(F)c(Nc3ccc(Br)cc3Cl)c(C(=O)NOCCO)cc21` ?
8%

Quick one: inhibition at 1 µM of `C=CC(=O)N1CCC([C@@H]2CCNc3c(C(N)=O)c(-c4ccc(Oc5ccccc5)cc4)nn32)CC1` ?
67%

====

System: 134 cancer cell lines
measurement.notes: Cell viability assay (ATPlite, 72 hours), IC50 on cancer cell line panel
run.parameters: Homo sapiens, SK-N-MC, read-out: IC50 in cell proliferation assay
quantity: IC50
A complete answer gives the number and then names the unit.

Quick one: IC50 of `CCN1C(=O)N(c2c(F)c(OC)cc(OC)c2F)Cc2cnc3[nH]c(CN4CCOCC4)cc3c21` ?
2600 nM

====

target.desc: panel of 255 wild-type kinases (Homo sapiens)
measurement.notes: Kinase panel profiling at 1 µmol/L (MSA or IMAP), percentage inhibition
Assay type: biochemical
run.parameters: kinase WNK1; 1 µmol/L single concentration; read-out: %-inhibition at 1 µmol/L, WNK1
inhibition at 1 µM by entry:
Your answer should be a plain number; it is taken to be in %.

smiles.representation: Cn1cnc2c(F)c(Nc3ccc(Br)cc3Cl)c(C(=O)NOCCO)cc21
target.desc: panel of 255 wild-type kinases (Homo sapiens)
quantity: inhibition at 1 µM
reported.measurement: -2.62
//
smiles.representation: COC(=O)N[C@@H](C)CNc1nccc(-c2cn(C(C)C)nc2-c2cc(Cl)cc(NS(C)(=O)=O)c2F)n1
target.desc: panel of 255 wild-type kinases (Homo sapiens)
quantity: inhibition at 1 µM
reported.measurement: 0.0799
//
smiles.representation: CO[C@]1(C(=O)N[C@@H](C)c2ccc(-n3cc(F)cn3)nc2)CC[C@H](c2nc(C)cc(Nc3cc(C)[nH]n3)n2)CC1
target.desc: panel of 255 wild-type kinases (Homo sapiens)
quantity: inhibition at 1 µM
reported.measurement: -2.67
//
smiles.representation: Cc1cc(Nc2ncnc3ccc(NC4=NC(C)(C)CO4)cc23)ccc1Oc1ccn2ncnc2c1
target.desc: panel of 255 wild-type kinases (Homo sapiens)
quantity: inhibition at 1 µM
reported.measurement: -4

Quick one: inhibition at 1 µM of `FC(F)(F)c1ccc(CNc2ccc(Cc3c[nH]c4ncc(Cl)cc34)cn2)cn1` ?
-1.24

Quick one: inhibition at 1 µM of `CN1CCN(c2ccc(C(=O)Nc3n[nH]c4ccc(Cc5cc(F)cc(F)c5)cc34)c(NC3CCOCC3)c2)CC1` ?
-2.18

====

target.desc: panel of 255 wild-type kinases (Homo sapiens)
measurement.notes: Kinase panel profiling at 1 µmol/L (MSA or IMAP), percentage inhibition
Format: biochemical
run.parameters: kinase EPHB4; 1 µmol/L single concentration; read-out: %-inhibition at 1 µmol/L, EPHB4
inhibition at 1 µM by entry:
Your answer should be a plain number; it is taken to be in %.

smiles.representation: CCN1CCN(c2ccc(Nc3cc(N(C)C(=O)Nc4c(Cl)c(OC)cc(OC)c4Cl)ncn3)cc2)CC1
target.desc: panel of 255 wild-type kinases (Homo sapiens)
quantity: inhibition at 1 µM
measure.unit: %
reported.measurement: -0.369
//
smiles.representation: O=C(Nc1cnn2ccc(N3CCC[C@@H]3c3cc(F)ccc3F)nc12)N1CC[C@H](O)C1
target.desc: panel of 255 wild-type kinases (Homo sapiens)
quantity: inhibition at 1 µM
measure.unit: %
reported.measurement: -2.17
//
smiles.representation: FC(F)(F)c1ccc(CNc2ccc(Cc3c[nH]c4ncc(Cl)cc34)cn2)cn1
target.desc: panel of 255 wild-type kinases (Homo sapiens)
quantity: inhibition at 1 µM
measure.unit: %
reported.measurement: -2
//
smiles.representation: CCc1nc(C(N)=O)c(Nc2ccc(N3CCC(N4CCN(C)CC4)CC3)c(OC)c2)nc1NC1CCOCC1
target.desc: panel of 255 wild-type kinases (Homo sapiens)
quantity: inhibition at 1 µM
measure.unit: %
reported.measurement: 74

Quick one: inhibition at 1 µM of `Cn1cnc2c(F)c(Nc3ccc(Br)cc3Cl)c(C(=O)NOCCO)cc21` ?
0.674

====

target.desc: UniProtKB P78368
Sequence (P78368 whole entry): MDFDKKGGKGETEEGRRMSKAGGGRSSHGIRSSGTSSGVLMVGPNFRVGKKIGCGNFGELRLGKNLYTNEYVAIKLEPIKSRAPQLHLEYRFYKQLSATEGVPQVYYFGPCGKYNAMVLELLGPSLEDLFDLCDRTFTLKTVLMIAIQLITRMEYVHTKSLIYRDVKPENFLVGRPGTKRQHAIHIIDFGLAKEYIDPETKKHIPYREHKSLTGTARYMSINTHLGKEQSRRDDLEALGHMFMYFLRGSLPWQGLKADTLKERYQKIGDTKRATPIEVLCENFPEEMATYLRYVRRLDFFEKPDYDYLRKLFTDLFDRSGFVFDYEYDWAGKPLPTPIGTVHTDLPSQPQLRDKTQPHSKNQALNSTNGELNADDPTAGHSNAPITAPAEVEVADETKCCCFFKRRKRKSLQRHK
measurement.notes: Kinase panel profiling at 1 µmol/L (MSA or IMAP), percentage inhibition
Format: biochemical
run.parameters: kinase CK1γ2; 1 µmol/L single concentration; read-out: %-inhibition at 1 µmol/L, CK1γ2
quantity: inhibition at 1 µM (%)
Your answer should be a plain number; it is taken to be in %.

compound: C=CC(=O)N1CCC([C@@H]2CCNc3c(C(N)=O)c(-c4ccc(Oc5ccccc5)cc4)nn32)CC1 [zanubrutinib]
measure.unit: %
inhibition at 1 µM: -7
--
compound: Cn1cnc2c(F)c(Nc3ccc(Br)cc3Cl)c(C(=O)NOCCO)cc21 [selumetinib]
measure.unit: %
inhibition at 1 µM: -1.66
--
compound: CCn1c(=O)c(-c2cc(NC(=O)Nc3ccccc3)c(F)cc2Br)cc2cnc(NC)cc21 [ripretinib]
measure.unit: %
inhibition at 1 µM: -2.31

Reported inhibition at 1 µM for UniProtKB P78368, given Cc1nc(NC(=O)N2CCC[C@H]2C(N)=O)sc1-c1ccnc(C(C)(C)C(F)(F)F)c1 [alpelisib] ?
-1.58

====

target.desc: panel of 255 wild-type kinases (Homo sapiens, UniProt Q8NE63)
Sequence (Q8NE63 1-616): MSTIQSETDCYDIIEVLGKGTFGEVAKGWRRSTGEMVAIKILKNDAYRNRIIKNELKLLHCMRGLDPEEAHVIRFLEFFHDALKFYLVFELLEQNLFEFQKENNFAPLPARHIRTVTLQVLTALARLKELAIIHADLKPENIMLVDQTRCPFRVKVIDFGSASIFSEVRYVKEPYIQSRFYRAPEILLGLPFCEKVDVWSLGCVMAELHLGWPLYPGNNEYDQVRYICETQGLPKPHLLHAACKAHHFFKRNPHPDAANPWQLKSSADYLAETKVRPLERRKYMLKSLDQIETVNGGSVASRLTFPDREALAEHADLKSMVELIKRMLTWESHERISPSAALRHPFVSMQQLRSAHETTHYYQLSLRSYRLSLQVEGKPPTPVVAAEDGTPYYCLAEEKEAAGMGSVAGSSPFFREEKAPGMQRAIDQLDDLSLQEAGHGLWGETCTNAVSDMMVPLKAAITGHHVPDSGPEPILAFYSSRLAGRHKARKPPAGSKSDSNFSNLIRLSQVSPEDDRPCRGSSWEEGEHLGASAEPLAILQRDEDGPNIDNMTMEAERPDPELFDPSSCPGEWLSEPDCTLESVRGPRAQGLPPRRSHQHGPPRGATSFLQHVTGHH
measurement.notes: Kinase panel profiling at 1 µmol/L (MSA or IMAP), percentage inhibition
Type: biochemical
run.parameters: kinase HIPK4; 1 µmol/L single concentration; read-out: %-inhibition at 1 µmol/L, HIPK4
inhibition at 1 µM by entry:
Your answer should be a plain number; it is taken to be in %.

compound: CCN1C(=O)N(c2c(F)c(OC)cc(OC)c2F)Cc2cnc3[nH]c(CN4CCOCC4)cc3c21 [pemigatinib]
reported.measurement: 28
//
compound: Cc1cc(Nc2ncnc3ccc(NC4=NC(C)(C)CO4)cc23)ccc1Oc1ccn2ncnc2c1 [tucatinib]
reported.measurement: 21
//
compound: CCc1nc(C(N)=O)c(Nc2ccc(N3CCC(N4CCN(C)CC4)CC3)c(OC)c2)nc1NC1CCOCC1 [gilteritinib]
reported.measurement: 99

Quick one: inhibition at 1 µM of O=C(Nc1cnn2ccc(N3CCC[C@@H]3c3cc(F)ccc3F)nc12)N1CC[C@H](O)C1 [larotrectinib] ?
6

Quick one: inhibition at 1 µM of COc1cc2ncnc(Nc3ccc(F)c(Cl)c3)c2cc1NC(=O)/C=C/CN1CCCCC1 [dacomitinib] ?
85

Quick one: inhibition at 1 µM of CCn1c(=O)c(-c2cc(NC(=O)Nc3ccccc3)c(F)cc2Br)cc2cnc(NC)cc21 [ripretinib] ?
98

Quick one: inhibition at 1 µM of C[C@H]1Oc2cc(cnc2N)-c2c(nn(C)c2C#N)CN(C)C(=O)c2ccc(F)cc21 [lorlatinib] ?
2.62

Quick one: inhibition at 1 µM of CN1CCN(c2ccc(C(=O)Nc3n[nH]c4ccc(Cc5cc(F)cc(F)c5)cc34)c(NC3CCOCC3)c2)CC1 [entrectinib] ?
14
